- system under test: Muscarinic acetylcholine receptor M1 (Homo sapiens); also: assay procedure not described here
- Sequence (P11229 whole entry): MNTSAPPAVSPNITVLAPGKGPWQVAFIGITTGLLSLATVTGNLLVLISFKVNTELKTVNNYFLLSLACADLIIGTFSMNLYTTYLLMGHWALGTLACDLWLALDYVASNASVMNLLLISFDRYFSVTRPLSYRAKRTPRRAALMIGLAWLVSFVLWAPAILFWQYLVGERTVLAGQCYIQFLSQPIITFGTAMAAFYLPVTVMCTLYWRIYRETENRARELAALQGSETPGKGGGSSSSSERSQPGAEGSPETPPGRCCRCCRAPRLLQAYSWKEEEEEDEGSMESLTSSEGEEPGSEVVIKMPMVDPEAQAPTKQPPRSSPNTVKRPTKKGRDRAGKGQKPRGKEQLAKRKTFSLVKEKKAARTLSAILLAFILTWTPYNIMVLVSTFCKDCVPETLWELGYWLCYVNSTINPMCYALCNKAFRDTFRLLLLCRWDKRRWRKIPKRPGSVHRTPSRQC
- Format: functional, cell-based
Form field: AC50 (one value per entry).

Solved cases (5 shown):
compound	system under test	readout	measured
C=CCc1ccccc1OCC(O)CNC(C)C (stereo not drawn)	Muscarinic acetylcholine receptor M1 (Homo sapiens)	AC50	> 0.3 µM
OC[C@@H](O)[C@H](O)[C@@H](O)CO	Muscarinic acetylcholine receptor M1 (Homo sapiens)	AC50	> 30 µM
CC[C@H]1[C@@H](O)[C@@H]2[C@H](CC[C@]3(C)[C@@H]([C@H](C)CCC(=O)O)CC[C@@H]23)[C@@]2(C)CC[C@@H](O)C[C@@H]12	Muscarinic acetylcholine receptor M1 (Homo sapiens)	AC50	> 30 µM
COC1=C(OC)C(=O)C(C/C=C(\C)CC/C=C(\C)CC/C=C(\C)CC/C=C(\C)CC/C=C(\C)CC/C=C(\C)CC/C=C(\C)CC/C=C(\C)CC/C=C(\C)CCC=C(C)C)=C(C)C1=O	Muscarinic acetylcholine receptor M1 (Homo sapiens)	AC50	> 30 µM
CN1CCN(C2=Nc3ccccc3Sc3ccc(Cl)cc32)CC1	Muscarinic acetylcholine receptor M1 (Homo sapiens)	AC50	> 10 µM

Prompt line: Would you mind telling me what AC50 value was observed for CCCCOC(=O)C(=O)[C@H]1[C@H](C)C[C@H]2[C@@H]3C[C@H](F)C4=CC(=O)C=C[C@]4(C)[C@H]3[C@@H](O)C[C@@]21C ?
Response line: > 30 µM

Prompt line: Would you mind telling me what AC50 value was observed for CC(C)(C)NCC(O)COc1cccc2c1SCCC2 (stereo not drawn) ?
Response line: > 30 µM

Prompt line: Would you mind telling me what AC50 value was observed for CC(=O)OCC1=C(C(=O)O)N2C(=O)[C@@H](NC(=O)[C@H](N)c3ccccc3)[C@H]2SC1 ?
Response line: > 30 µM
